B1: KAT8 regulatory NSL complex subunit 2, residues 28 to 91; numbered along this chain, Q9H9L4 (parent)
chain: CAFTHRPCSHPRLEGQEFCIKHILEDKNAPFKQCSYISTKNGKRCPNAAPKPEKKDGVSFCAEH

- Variants of: B1
- run.description: abundance fitness (aPCA) (normalised: wild type 0, dead -1); higher = more abundant; growth selection in yeast, the domain comes from the species named
- conditions.used: Homo sapiens
Consider the following variants; for each one, report its abundance fitness.

response.value for `K27S` (field: abundance fitness) = -0.093

response.value for `I23G` (field: abundance fitness) = -0.295

response.value for `S35H` (field: abundance fitness) = -0.333

response.value for `I23Y` (field: abundance fitness) = -0.296

response.value for `K43R` (field: abundance fitness) = -0.055

response.value for `S38R` (field: abundance fitness) = -0.06

response.value for `A48E` (field: abundance fitness) = -0.28

response.value for `I37K` (field: abundance fitness) = -0.107

response.value for `S35V` (field: abundance fitness) = -0.031

response.value for `N41F` (field: abundance fitness) = -0.086

response.value for `K21G` (field: abundance fitness) = -0.121

response.value for `H5M` (field: abundance fitness) = -0.012

response.value for `E17W` (field: abundance fitness) = -0.26

response.value for `G57S` (field: abundance fitness) = -0.372

response.value for `A49T` (field: abundance fitness) = -0.005

response.value for `V58L` (field: abundance fitness) = -0.046

response.value for `D26A` (field: abundance fitness) = -0.084

response.value for `Q33I` (field: abundance fitness) = -0.124

response.value for `E63K` (field: abundance fitness) = -0.09

response.value for `Q16T` (field: abundance fitness) = -0.15

response.value for `I37Y` (field: abundance fitness) = -0.137

response.value for `E25T` (field: abundance fitness) = -0.127

response.value for `E63A` (field: abundance fitness) = -0.064

response.value for `S59I` (field: abundance fitness) = -0.006

response.value for `C1D` (field: abundance fitness) = -0.896

response.value for `K43A` (field: abundance fitness) = -0.117

response.value for `H10E` (field: abundance fitness) = -0.038

response.value for `A29D` (field: abundance fitness) = -0.225

response.value for `K51F` (field: abundance fitness) = -0.21

response.value for `N47G` (field: abundance fitness) = -0.076

response.value for `R6F` (field: abundance fitness) = -0.016

response.value for `C8F` (field: abundance fitness) = -1.45

response.value for `A2E` (field: abundance fitness) = -0.522

response.value for `D56F` (field: abundance fitness) = -0.137

response.value for `P11C` (field: abundance fitness) = -0.296

response.value for `R44D` (field: abundance fitness) = -0.102

response.value for `I23A` (field: abundance fitness) = -0.078

response.value for `E25F` (field: abundance fitness) = -0.065

response.value for `D26M` (field: abundance fitness) = -0.195

response.value for `H5F` (field: abundance fitness) = -0.096

response.value for `C45H` (field: abundance fitness) = -0.581

response.value for `A29V` (field: abundance fitness) = -0.196

response.value for `T39W` (field: abundance fitness) = -0.57

response.value for `Y36P` (field: abundance fitness) = -0.298

response.value for `P46W` (field: abundance fitness) = -0.024

response.value for `H10L` (field: abundance fitness) = -0.103
